assay: Study 2: open-label 3-way crossover, liquid formulation oral vs NGT with D5W or infant formula flush; type: in vivo, human; settings: human, plasma, po, 5 mg, Study 2, Treatment A: 5 mg (12.5 mL) liquid formulation by mouth via oral syringe; read-out: AUCinf Geo. Mean
quantityKind: AUC(0-inf) (ng·h/mL)
Numbers only, in ng·h/mL.

Req: Which measured AUC(0-inf) value corresponds to COc1ccc(-n2nc(C(N)=O)c3c2C(=O)N(c2ccc(N4CCCCC4=O)cc2)CC3)cc1 ?
Resp: 1280

###

test: Study 2: open-label 3-way crossover, liquid formulation oral vs NGT with D5W or infant formula flush; type: in vivo, human; conditions: human, plasma, po, 5 mg, Study 2, Treatment B: 5 mg (12.5 mL) liquid formulation via NGT followed by 60 mL of D5W via NGT; read-out: AUCinf Geo. Mean
quantityKind: AUC(0-inf) (ng·h/mL)
Numbers only, in ng·h/mL.

Req: Which measured AUC(0-inf) value corresponds to COc1ccc(-n2nc(C(N)=O)c3c2C(=O)N(c2ccc(N4CCCCC4=O)cc2)CC3)cc1 ?
Resp: 1240

Entry source: patent US20160263097A1
